# Test: Solubility testing in FaSSIF, FeSSIF and SGF (37°C, HPLC of filtrate)
# Assay type: physicochemical
# Assay setup: thermodynamic from solid; FeSSIF, 37°C, 0.5 h; read-out: Solubility (mg/mL) 0.5 h
# Description: Preparation of FaSSIF stock solution with pH buffer: Approximately 621 mg of NaCl, approximately 345 mg of NaH2PO4, and approximately 41.9 mg of NaOH are weighed into a 100 mL volumetric flask, and dissolved in water to approximately 5 cm below the mark. […] Approximately 20 mg of sample is weighed into a 4 mL vial, followed by addition of 4 mL of different solvents (FaSSIF, FeSSIF, SGF). […] After filtration, the sample concentration in the filtrate is determined by HPLC. […]
Measured property: solubility at 0.5 h (mg/mL)
The figure you give is taken to be in mg/mL; do not add the unit.

For the compound shown here, COc1cc(Nc2ccc3ncc(N4CCOCC4)nc3c2C#N)ccc1OCc1ccc(C)nc1 [Compound 1] , give the reported solubility at 0.5 h.
0.00313
